# target or system: Falcipain-2 (Plasmodium falciparum)
# Sequence (Q8I6U4 244-484): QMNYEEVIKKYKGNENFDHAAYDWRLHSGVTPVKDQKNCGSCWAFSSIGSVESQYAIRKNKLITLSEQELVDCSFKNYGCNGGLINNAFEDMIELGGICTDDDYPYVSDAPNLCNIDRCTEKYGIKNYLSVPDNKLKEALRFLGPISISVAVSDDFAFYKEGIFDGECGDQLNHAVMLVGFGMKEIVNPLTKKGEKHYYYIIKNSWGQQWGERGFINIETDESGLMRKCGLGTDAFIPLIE
# assay summary: falcipain-2 enzymatic assay (fluorogenic substrate H-D-VLR-AFC, endpoint)
# condition context: parasitic recombinant enzyme, pH 5.5, quenched after 60 minutes
Where a name gives a salt, the structure may show the parent alone.
Reported IC50 is given for each of the following compounds.

[Q] Respond only with IC50 recorded for CN1CCN(c2ccc(C(=O)NN(c3nc(C#N)nc4c3ncn4C)C3CCCC3)cc2)CC1 [Example 32, trifluoroacetate]
[A] 2.5 to 15 nM

[Q] Respond only with IC50 recorded for CN(C)CCn1cnc2c(N(NC(=O)c3ccc(CN4CCN(C)CC4)cc3)C3CCCCC3)nc(C#N)nc21 [Example 44, trifluoroacetate]
[A] 2.5 to 15 nM

[Q] Respond only with IC50 recorded for CN(C)CCn1cnc2c(N(NC(=O)c3cccc(-c4ccc(CN5CCN(C)CC5)cc4)n3)C3CCCC3)nc(C#N)nc21 [Example 42, trifluoroacetate]
[A] 2.5 to 15 nM

[Q] Respond only with IC50 recorded for CN(C)CCn1cnc2c(N(NC(=O)c3cccc(-c4ccc(CN5CCN(C)CC5)cc4)n3)C3CCCCC3)nc(C#N)nc21 [Example 45, trifluoroacetate]
[A] 2.5 to 15 nM

[Q] Respond only with IC50 recorded for CN(C)CCCn1cnc2c(N(CC3CCCC3)NC(=O)OC(C)(C)C)nc(C#N)nc21 [Example 12, trifluoroacetate]
[A] 1 to 2.5 nM

[Q] Respond only with IC50 recorded for CN(C)CCn1cnc2c(N(NC(=O)c3cccc(N4CCN(C)CC4)c3)C3CCCC3)nc(C#N)nc21 [Example 41, bis(trifluoroacetate)]
[A] 1 to 2.5 nM

[Q] Respond only with IC50 recorded for CN(C)CCCn1cnc2c(N(NC(=O)c3ccc(CN4CCN(C)CC4)cc3)C3CCCC3)nc(C#N)nc21 [Example 17, trifluoroacetate]
[A] 1 to 2.5 nM

[Q] Respond only with IC50 recorded for CN1CCN(C(=O)n2cnc3c(N(NC(=O)OC(C)(C)C)C4CCCC4)nc(C#N)nc32)CC1 [Example 29]
[A] ≤ 1 nM

[Q] Respond only with IC50 recorded for CN1CCN(Cc2cccc(C(=O)NN(c3nc(C#N)nc4c3ncn4C)C3CCCC3)n2)CC1 [Example 26, trifluoroacetate]
[A] 2.5 to 15 nM

[Q] Respond only with IC50 recorded for CN(C)CCCn1cnc2c(N(NC(=O)c3cccc(N4CCN(C)CC4)c3)C3CCCC3)nc(C#N)nc21 [Example 37]
[A] 1 to 2.5 nM

[Q] Respond only with IC50 recorded for Cn1cnc2c(N(NC(=O)c3ccc(CN4CC(N5CCCC5)C4)cc3)C3CCCC3)nc(C#N)nc21 [Example 7]
[A] 2.5 to 15 nM

[Q] Respond only with IC50 recorded for CN1CCN(c2cccc(C(=O)NN(c3nc(C#N)nc4c3ncn4C)C3CCCCC3)c2)CC1 [Example 36, trifluoroacetate]
[A] 2.5 to 15 nM

[Q] Respond only with IC50 recorded for CN(C)CCCn1cnc2c(N(NC(=O)OC(C)(C)C)C3CCCC3)nc(C#N)nc21 [Example 15, trifluoroacetate]
[A] 2.5 to 15 nM

[Q] Respond only with IC50 recorded for CN(C)CCn1cnc2c(N(NC(=O)OC(C)(C)C)C3CCCC3)nc(C#N)nc21 [Example 39, trifluoroacetate]
[A] 2.5 to 15 nM
